# TEST DESCRIPTION: gradient 5% acetonitrile 3 min, to 50% in 2 min, to 85% in 15 min, held 3 min, 100 µL/min
# CONDITION LABEL: column: Zorbax Extend-C18 2.1 x 50 mm; eluents: water / acetonitrile, 0.1% formic acid
RP-LC retention time of 700 s or higher: criterion met. Under 700 s: criterion not met.

>>> label_class("Cc1noc(C)c1S(=O)(=O)N1CCCCC1c1nncn1C (centres undefined)")
"criterion not met"
>>> label_class("CCN(CC)CCNC(=O)C(C)n1c2ccccc2c2cnn(C)c(=O)c21 (centres undefined)")
"criterion not met"
>>> label_class("c1ccc(N2CCN(Cc3nc(-c4ccc(N5CCCCCC5)nc4)no3)CC2)nc1")
"criterion not met"
>>> label_class("Cc1ccc(-c2nc(N)n(S(=O)(=O)c3ccc(C)cc3)n2)cc1")
"criterion met"
>>> label_class("O=C(c1ccco1)N1CCN(C(=O)c2sc3ncccc3c2-n2cccc2)CC1")
"criterion met"

Input: # bool: RP-LC retention time of N#CC1=C(SCC(=O)NCc2ccccc2)NC(=O)CC1c1cccc([N+](=O)[O-])c1 (centres undefined) >= 700 s
Output: criterion met

Input: # bool: RP-LC retention time of N#Cc1cccc(C(=O)N2CCc3cc(-c4ccno4)ccc32)c1 >= 700 s
Output: criterion met

Input: # bool: RP-LC retention time of COc1ncccc1C(=O)Nc1ccc2c(c1)CCC(=O)N2 >= 700 s
Output: criterion not met

Input: # bool: RP-LC retention time of CCc1ccc(S(=O)(=O)N2CCCN(C)c3ccccc32)cc1 >= 700 s
Output: criterion met

Input: # bool: RP-LC retention time of CCn1c(=O)c(N2CCN(C(=O)Nc3cccc(Br)c3)CC2)nc2cccnc21 >= 700 s
Output: criterion met

Input: # bool: RP-LC retention time of Cc1cc(C)cc(N2CCC(NC(=O)c3cccc(C#N)c3)C2=O)c1 (centres undefined) >= 700 s
Output: criterion met

Input: # bool: RP-LC retention time of CCCn1cc(CCNC(=O)Nc2ccc(Br)cc2)c2cccnc21 >= 700 s
Output: criterion met

====

# TEST DESCRIPTION: gradient 5% acetonitrile 3 min, to 50% in 2 min, to 85% in 15 min, held 3 min, 100 µL/min
# CONDITION LABEL: column: Zorbax Extend-C18 2.1 x 50 mm; eluents: water / acetonitrile, 0.1% formic acid
The following compounds are listed with their measured RP-LC retention time values.
Provide only the numeric value, understood in s.

Here is how some compounds turned out for RP-LC retention time.
>>> observed_result("Cc1ccc(NC(=O)Cn2nc3cc(-c4ccccc4)nc(C)n3c2=O)c(C)c1")
985
>>> observed_result("O=C(NCCCn1cccn1)C1CCN(c2nnc3ccc(Cl)cn23)CC1")
618
>>> observed_result("Cc1cc(C(=O)Nc2c3c(nn2-c2ccccc2)CCC3)nn1C")
733
>>> observed_result("CC(C)NC(=O)N1CCCC(c2cccc(C(=O)NCc3ccccc3C(F)(F)F)c2)C1 (centres undefined)")
966
>>> observed_result("CCCNC(=O)C1CCN(c2ccc(SCC(=O)NCc3ccccc3)nn2)CC1")
645
>>> observed_result("COc1ccc(CCC(=O)N(C)CCc2noc(COc3ccc(OC)cc3)n2)cc1")
911
>>> observed_result("O=C(c1ccc(F)c(F)c1)N1CCOC(c2ccccc2)C1 (centres undefined)")
845
>>> observed_result("O=C(Nc1ccccc1C(F)(F)F)N1CCCC1c1nncn1-c1ccccc1 (centres undefined)")
736

Input: Please give the measured RP-LC retention time for this compound: O=C(CSc1nc2ncccc2[nH]1)NC1CCCC1
Output: 585

Input: Please give the measured RP-LC retention time for this compound: CSc1ccc(-c2noc(Cn3c(=O)n(CC4CCCO4)c(=O)c4ccccc43)n2)cc1 (centres undefined)
Output: 1070

Input: Please give the measured RP-LC retention time for this compound: CSCc1csc(NC(=O)c2ccc(F)c(F)c2)n1
Output: 857

Input: Please give the measured RP-LC retention time for this compound: CCN1CCN(c2nccc(-c3cnc4nc(-c5ccncc5)nn4c3C)n2)CC1
Output: 562

Input: Please give the measured RP-LC retention time for this compound: Cc1ccc2c(c1)N(CCCC(=O)Nc1ccc(C)c(C)c1)C(=O)CO2
Output: 922
